Every entry's value here was drawn from paper PMC4490227.

target or test system: human 5-HT3A receptors (Homo sapiens)
Sequence (P46098 24-478): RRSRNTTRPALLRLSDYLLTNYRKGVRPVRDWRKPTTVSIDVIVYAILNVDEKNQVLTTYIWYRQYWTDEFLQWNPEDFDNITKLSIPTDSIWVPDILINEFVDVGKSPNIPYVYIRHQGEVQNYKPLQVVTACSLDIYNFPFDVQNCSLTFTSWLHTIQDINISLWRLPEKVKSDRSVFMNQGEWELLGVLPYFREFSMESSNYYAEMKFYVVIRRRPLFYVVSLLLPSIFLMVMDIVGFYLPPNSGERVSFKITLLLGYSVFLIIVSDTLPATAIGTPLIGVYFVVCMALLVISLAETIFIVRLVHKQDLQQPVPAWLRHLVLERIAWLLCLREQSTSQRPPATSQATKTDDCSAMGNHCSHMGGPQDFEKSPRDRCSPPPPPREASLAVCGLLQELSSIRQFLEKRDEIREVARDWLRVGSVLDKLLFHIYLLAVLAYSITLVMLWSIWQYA
measurement description: Two-electrode voltage-clamp: modulation of 5-HT-induced currents at 5-HT3A receptors heterologously expressed in Xenopus laevis oocytes
Format: cell-based
reported conditions: substance 1 mM (Figure 2A); read-out: 5-HT3A receptor inhibition by the substances (screening)
Kindly state inhibition at 1000 µM for each of the entries shown.
Give bare numbers, in %.

compound: CC1(C)[C@@H](O[C@H]2O[C@H](C(=O)O)[C@@H](O)[C@H](O)[C@H]2O[C@@H]2O[C@H](C(=O)O)[C@@H](O)[C@H](O)[C@H]2O)CC[C@]2(C)[C@H]3C(=O)C=C4[C@@H]5C[C@@](C)(C(=O)O)CC[C@]5(C)CC[C@@]4(C)[C@]3(C)CC[C@@H]12
experimental endpoint: inhibition at 1000 µM
recorded number: -3.1
--
compound: COc1ccc([C@@H]2CC(=O)c3c(O)cc(O)cc3O2)cc1O
experimental endpoint: inhibition at 1000 µM
recorded number: 66.6
--
compound: O=C1C[C@@H](c2ccc(O)cc2)Oc2cc(O)ccc21 [(-)-liquiritigenin]
experimental endpoint: inhibition at 1000 µM
recorded number: 92.8
--
compound: C=CC(C)(C)c1cc(/C=C/C(=O)c2ccc(O)cc2)c(OC)cc1O
experimental endpoint: inhibition at 1000 µM
recorded number: 70.6

Bench note, human 5-HT3A receptors (Homo sapiens): entry "C[C@@H]1O[C@@H](OC[C@H]2O[C@@H](Oc3c(-c4ccc(O)c(O)c4)oc4cc(O)cc(O)c4c3=O)[C@H](O)[C@@H](O)[C@@H]2O)[C@H](O)[C@H](O)[C@H]1O" , its inhibition at 1000 µM = 57

----------
target or test system: human 5-HT3A receptors (Homo sapiens, UniProt P46098)
measurement description: Two-electrode voltage-clamp: modulation of 5-HT-induced currents at 5-HT3A receptors heterologously expressed in Xenopus laevis oocytes
Format: cell-based
reported conditions: read-out: IC50 of substances
experimental endpoint: IC50 (µM)
One number for each entry, in µM.

Example cases with answers are listed next.
molecule: CC1(C)C=Cc2c(ccc3c2OC[C@@H](c2ccc(O)cc2O)C3)O1
experimental endpoint: IC50
unit: µM
recorded number: 28
//
molecule: C=C1CCC[C@]2(C)C[C@]3(O)OC(=O)C(C)=C3C[C@@H]12 [Atractylenolide III, atractylenolide III]
experimental endpoint: IC50
unit: µM
recorded number: 1320
//
molecule: O=C1C[C@@H](c2ccc(O)cc2)Oc2cc(O)ccc21 [(-)-liquiritigenin]
experimental endpoint: IC50
unit: µM
recorded number: 210
//
molecule: C=CC(C)(C)c1cc(/C=C/C(=O)c2ccc(O)cc2)c(OC)cc1O
experimental endpoint: IC50
unit: µM
recorded number: 14.4

Lab book: IC50 of "COc1ccc([C@@H]2CC(=O)c3c(O)cc(O)cc3O2)cc1O" noted as 218
